Below, each entry is listed alongside its reported Averaged Max % Response (±St. Dev.).
target_of_assay: GPR139 (Homo sapiens, UniProt Q6DWJ6)
Sequence (Q6DWJ6 whole entry): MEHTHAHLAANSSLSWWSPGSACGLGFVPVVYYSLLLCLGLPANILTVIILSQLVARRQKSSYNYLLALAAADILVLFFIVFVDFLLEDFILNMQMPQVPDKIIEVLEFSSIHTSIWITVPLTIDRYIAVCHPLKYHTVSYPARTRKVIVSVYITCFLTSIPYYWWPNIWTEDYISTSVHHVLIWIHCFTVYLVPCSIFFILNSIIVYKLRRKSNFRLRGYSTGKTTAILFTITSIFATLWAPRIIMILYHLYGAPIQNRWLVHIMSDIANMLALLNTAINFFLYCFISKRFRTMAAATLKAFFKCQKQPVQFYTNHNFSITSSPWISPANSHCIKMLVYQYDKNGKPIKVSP
method_summary: GPR139 Agonist titration / agonist counterscreen assay (calcium detection, HEK-GPR139 cells)
Format: cell-based
Parameters: expressed in transfected cells; host or cells: HEK Aequorin cells, Maxcyte transient transfection
condition_notes: GPR139 Agonist Activity; activity relative to known control

Solved cases below.
| compound | target_of_assay | Averaged Max % Response (±St. Dev.) |
| --- | --- | --- |
| CC(C)Cn1c2c(c(=O)[nH]c1=O)C(NC(=O)CCC1CCCCC1)(C(F)(F)F)C(=O)N2 (stereo not drawn) | GPR139 (Homo sapiens, UniProt Q6DWJ6) | 78.41 ± 20.14% |
| Cc1cc(Cl)ccc1OC(C)C(=O)NNC(=O)c1ccccc1 (stereo not drawn) | GPR139 (Homo sapiens, UniProt Q6DWJ6) | 93.40 ± 11.14% |
| COc1ccccc1-c1nnc(NC(=O)Cc2ccc(C)cc2C)o1 | GPR139 (Homo sapiens, UniProt Q6DWJ6) | 98.09 ± 3.30% |
| Cc1cccc(C(=O)NNC(=O)C(C)Oc2ccc(O)cc2O)c1 (stereo not drawn) | GPR139 (Homo sapiens, UniProt Q6DWJ6) | 114.68 ± 11.76% |
| O=C(COc1ccccc1Cl)NNC(=O)CSc1ccc2ccccc2c1 | GPR139 (Homo sapiens, UniProt Q6DWJ6) | 108.04 ± 6.43% |

Ask: Recorded Averaged Max % Response (±St. Dev.) of CC1(c2ccc(Cl)cc2)NC(=O)N(CC(=O)NCc2cccs2)C1=O (stereo not drawn) , please.
Reply: 95.61 ± 13.32%

The origin of these recorded values is patent US20250099420A1.
